- Assayed target: human APJ receptor (Homo sapiens, UniProt P35414)
- Construct: expressed in transfected cells
- Sequence (P35414 1-380): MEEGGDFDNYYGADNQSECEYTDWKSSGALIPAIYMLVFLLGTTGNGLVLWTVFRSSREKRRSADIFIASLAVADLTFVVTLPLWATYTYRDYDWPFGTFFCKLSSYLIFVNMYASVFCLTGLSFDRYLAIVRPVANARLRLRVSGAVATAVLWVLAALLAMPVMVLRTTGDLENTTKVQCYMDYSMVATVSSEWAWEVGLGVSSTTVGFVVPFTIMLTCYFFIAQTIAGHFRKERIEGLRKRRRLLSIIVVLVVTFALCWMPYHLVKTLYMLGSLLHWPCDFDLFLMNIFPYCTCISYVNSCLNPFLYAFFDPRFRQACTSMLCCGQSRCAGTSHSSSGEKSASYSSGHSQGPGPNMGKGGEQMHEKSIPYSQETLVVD
- Measurement notes: Intracellular cAMP accumulation assay (APJ hcAMP, HTRF)
- Type: cell-based
- Applied conditions: Table 2; HEK293 cells stably expressing human APJ receptor; read-out: hAPJ cAMP EC50 Potency range
Assay metric: EC50

[
  {
    "Molecule": "CCCCc1nc(O)c(-c2nnc(Cc3ccc(Cl)cn3)o2)c(=O)n1C(C)c1ccncc1 (stereo not shown) [Example 111]",
    "EC50": "0.01 to 10 nM"
  },
  {
    "Molecule": "CCCCc1nc(O)c(-c2nnc(Cc3csc(C)n3)o2)c(=O)n1[C@H](C)c1ccccc1OC",
    "EC50": "0.01 to 10 nM"
  },
  {
    "Molecule": "CCCCc1nc(O)c(-c2nnc(Cc3noc4ccccc34)o2)c(=O)n1[C@@H](C)c1cccc(C#N)c1",
    "EC50": "10 to 100 nM"
  }
]

Here is the next item to consider.
Query block: // fetch human APJ receptor (Homo sapiens, UniProt P35414) EC50 for `CCCCc1nc(O)c(-c2nnc(Cc3csc(C)n3)o2)c(=O)n1[C@@H](C)c1ccc(F)cc1`
Result block: 10 to 100 nM

----------
// reported pEC50 per item
- Assayed target: human APJ receptor (Homo sapiens, UniProt P35414)
- Construct: expressed in transfected cells
- Sequence (P35414 1-380): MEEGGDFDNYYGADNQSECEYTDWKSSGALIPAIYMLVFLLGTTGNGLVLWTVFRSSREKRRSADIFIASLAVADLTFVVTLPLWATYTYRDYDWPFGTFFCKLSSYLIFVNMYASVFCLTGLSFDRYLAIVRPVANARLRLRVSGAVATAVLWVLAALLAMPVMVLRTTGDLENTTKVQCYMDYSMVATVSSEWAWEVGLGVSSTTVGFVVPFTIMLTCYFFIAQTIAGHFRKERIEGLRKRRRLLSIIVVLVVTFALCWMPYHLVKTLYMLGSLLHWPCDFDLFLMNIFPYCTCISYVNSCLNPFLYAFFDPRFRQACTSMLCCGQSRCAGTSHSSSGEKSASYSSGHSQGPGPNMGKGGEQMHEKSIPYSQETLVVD
- Measurement notes: Intracellular cAMP accumulation assay (APJ hcAMP, HTRF)
- Format: cell-based
- Applied conditions: Table 2; HEK293 cells stably expressing human APJ receptor; read-out: hAPJ cAMP EC50 Potency range
pEC50: −log10 of the molar value.

[
  {
    "Molecule": "CCCCc1nc(O)c(-c2nnc(Cc3csc(C)n3)o2)c(=O)n1[C@@H](COC)c1ccccc1",
    "Result": "8.00 to 11.00"
  },
  {
    "Molecule": "CCCCc1nc(O)c(-c2nnc(Cc3csc(C)n3)o2)c(=O)n1[C@H](C)c1ccccc1",
    "Result": "7.00 to 8.00"
  },
  {
    "Molecule": "CCCCc1nc(O)c(-c2nnc(Cc3noc4ccccc34)o2)c(=O)n1[C@@H](CCC)c1ccccc1",
    "Result": "7.00 to 8.00"
  },
  {
    "Molecule": "CCCCc1nc(O)c(-c2nnc(Cc3ccc(Cl)cn3)o2)c(=O)n1[C@H](C)c1ccccc1",
    "Result": "8.00 to 11.00"
  },
  {
    "Molecule": "CCCCc1nc(O)c(-c2nnc(Cc3noc4ccccc34)o2)c(=O)n1[C@H]1CCc2ccccc21",
    "Result": "7.00 to 8.00"
  }
]

Query block: // fetch human APJ receptor (Homo sapiens, UniProt P35414) pEC50 for CCCCc1nc(O)c(-c2nnc(Cc3ccc(Cl)cn3)o2)c(=O)n1C(C)c1ccncc1 (centres unmarked) [Example 109]
Result block: 8.00 to 11.00

Query block: // fetch human APJ receptor (Homo sapiens, UniProt P35414) pEC50 for `CCCCc1nc(O)c(-c2nnc(Cc3noc4ccccc34)o2)c(=O)n1[C@@H](C)c1ccccc1`
Result block: 7.00 to 8.00

Query block: // fetch human APJ receptor (Homo sapiens, UniProt P35414) pEC50 for `CCCCc1nc(O)c(-c2nnc(Cc3noc4ccccc34)o2)c(=O)n1[C@H]1CCCc2ccccc21`
Result block: 6.52 to 7.00

----------
- Assayed target: human APJ receptor (Homo sapiens, UniProt P35414)
- Construct: expressed in transfected cells
- Measurement notes: Intracellular cAMP accumulation assay (APJ hcAMP, HTRF)
- Assay type: cell-based
- Applied conditions: Table 1; HEK293 cells stably expressing human APJ receptor; read-out: hAPJ cAMP EC50 Potency range
Assay metric: EC50

[
  {
    "Molecule": "COc1cccc(OC)c1-n1c(CCCC(F)(F)F)nc(=O)c(-c2nnc(Cc3noc4ccccc34)o2)c1O [Example 12]",
    "EC50": "0.01 to 10 nM"
  }
]

Query block: Please report the recorded EC50 for COc1cccc(OC)c1-n1c(COC(C)C)nc(=O)c(-c2nnc(Cc3ccc(Cl)cc3F)o2)c1O [Example 60] .
Result block: 0.01 to 10 nM

Query block: Please report the recorded EC50 for COc1cccc(OC)c1-n1c(C2CCCC2)nc(=O)c(-c2nnc(Cc3csc(C)n3)o2)c1O [Example 65] .
Result block: 0.01 to 10 nM

----------
// reported pEC50 per item
- Assayed target: human APJ receptor (Homo sapiens, UniProt P35414)
- Construct: expressed in transfected cells
- Measurement notes: Intracellular cAMP accumulation assay (APJ hcAMP, HTRF)
- Assay type: cell-based
- Applied conditions: Table 2; HEK293 cells stably expressing human APJ receptor; read-out: hAPJ cAMP EC50 Potency range
pEC50: −log10 of the molar value.

Known results for compounds:
[
  {
    "Compound": "CCCCc1nc(O)c(-c2nnc(Cc3csc(C)n3)o2)c(=O)n1[C@@H](C)c1cccc(C#N)c1",
    "pEC50": "7.00 to 8.00"
  },
  {
    "Compound": "CCCCc1nc(O)c(-c2nnc(Cc3noc4ccccc34)o2)c(=O)n1[C@@H](C)c1ccc(OC)cc1",
    "pEC50": "6.52 to 7.00"
  },
  {
    "Compound": "CCCCc1nc(O)c(-c2nnc(Cc3ccc(Cl)cn3)o2)c(=O)n1[C@@H](CC)c1ccccc1",
    "pEC50": "8.00 to 11.00"
  },
  {
    "Compound": "CCCCc1nc(O)c(-c2nnc(Cc3ccc(Cl)cn3)o2)c(=O)n1C(C)c1cccnc1 (stereo not shown)",
    "pEC50": "7.00 to 8.00"
  }
]

Query block: // fetch human APJ receptor (Homo sapiens, UniProt P35414) pEC50 for CCCCc1nc(O)c(-c2nnc(Cc3noc4ccccc34)o2)c(=O)n1C(c1ccccc1)C(C)C (stereo not shown)
Result block: 7.00 to 8.00

Query block: // fetch human APJ receptor (Homo sapiens, UniProt P35414) pEC50 for `CCCCc1nc(O)c(-c2nnc(Cc3noc4ccccc34)o2)c(=O)n1[C@H](C)c1ccccc1OC`
Result block: 7.00 to 8.00

Query block: // fetch human APJ receptor (Homo sapiens, UniProt P35414) pEC50 for `CCCCc1nc(O)c(-c2nnc(Cc3csc(C)n3)o2)c(=O)n1[C@H]1CCc2ccccc21`
Result block: 8.00 to 11.00

----------
- Assayed target: human APJ receptor (Homo sapiens)
- Construct: expressed in transfected cells
- Measurement notes: Intracellular cAMP accumulation assay (APJ hcAMP, HTRF)
- Type: cell-based
- Applied conditions: Table 1; HEK293 cells stably expressing human APJ receptor; read-out: hAPJ cAMP EC50 Potency range
pEC50: −log10 of the molar value.
Assay metric: pEC50

Known results for compounds:
[
  {
    "Molecule smiles": "COc1cccc(OC)c1-n1c(CCC2CC2)nc(=O)c(-c2nnc(CNC(=O)c3ccccn3)o2)c1O",
    "pEC50": "8.00 to 11.00"
  },
  {
    "Molecule smiles": "CCOCc1nc(=O)c(-c2nnc(Cc3ccc(Cl)c(F)c3)o2)c(O)n1-c1c(OC)cccc1OC",
    "pEC50": "8.00 to 11.00"
  }
]

Query block: Please report the recorded pEC50 for `COc1cccc(OC)c1-n1c(C2CCCC2)nc(=O)c(-c2nnc(Cc3ncc(Cl)cc3F)o2)c1O` .
Result block: 8.00 to 11.00

Query block: Please report the recorded pEC50 for `COc1cccc(OC)c1-n1c(CCC2CC2)nc(=O)c(-c2nnc(CN3CCOCC3=O)o2)c1O` .
Result block: 8.00 to 11.00

Query block: Please report the recorded pEC50 for `COc1cccc(OC)c1-n1c(C2CCC2)nc(=O)c(-c2nnc(CN3CCCC3=O)o2)c1O` .
Result block: 8.00 to 11.00

Query block: Please report the recorded pEC50 for `COc1cccc(OC)c1-n1c(CC2CC2)nc(=O)c(-c2nnc(Cc3ccc(Cl)cc3)o2)c1O` .
Result block: 8.00 to 11.00

Query block: Please report the recorded pEC50 for `COc1cccc(OC)c1-n1c(CC2CC2)nc(=O)c(-c2nnc(Cc3nc(-c4ccccn4)no3)o2)c1O` .
Result block: 8.00 to 11.00
